# system_name: serotonin 5-HT2C receptor (Rattus norvegicus)
# Construct: serotonin 5-HT2C receptor, [^3H]mesulergine, rat brain cortex; from tissue; host or cells: rat brain cortex
# Sequence (P08909 33-460): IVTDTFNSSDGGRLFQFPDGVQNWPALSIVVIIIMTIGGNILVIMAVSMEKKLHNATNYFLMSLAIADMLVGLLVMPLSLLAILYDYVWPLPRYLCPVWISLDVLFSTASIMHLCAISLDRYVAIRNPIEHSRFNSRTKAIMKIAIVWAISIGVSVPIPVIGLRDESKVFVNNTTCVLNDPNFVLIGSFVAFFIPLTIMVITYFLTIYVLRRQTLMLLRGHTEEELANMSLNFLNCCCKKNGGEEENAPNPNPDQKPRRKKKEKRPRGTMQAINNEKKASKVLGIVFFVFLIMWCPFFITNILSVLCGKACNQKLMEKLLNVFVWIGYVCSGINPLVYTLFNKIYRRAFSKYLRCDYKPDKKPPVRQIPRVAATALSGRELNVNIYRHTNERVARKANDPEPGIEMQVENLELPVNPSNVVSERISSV
# measurement_notes: radioligand binding assay, 5-HT2C, [3H]mesulergine
# condition_details: rat brain cortex; read-out: Ki ± SD, 5-HT2C [3H]Mesulergine
Task for the reader: assign each of the following molecules its reported Ki.
API: value field is a number in nM; no unit string.

Prompt line: What value of measured Ki is listed for O=C(NCCN1CCN(C(c2ccc(F)cc2)c2ccc(F)cc2)CC1)c1ccccn1 ?
Response line: 0.8

Prompt line: Another molecule to check: N#CN=C(NCCCN1CCN(C(c2ccc(F)cc2)c2ccc(F)cc2)CC1)c1ccccn1
Response line: 21.4

Prompt line: Another molecule to check: O=C(c1ccco1)N1CCN(CC(O)CON2C(=O)C3C4C=CC(C4)C3C2=O)CC1 (stereo not shown)
Response line: 5.04

Prompt line: Another molecule to check: O=C1C2C3C=CC(C3)C2C(=O)N1OCCN1CCN(c2ccc(Cl)c(Cl)c2)CC1 (stereo not shown)
Response line: 1.13

* * *

# System: MDA-MB231 cells
# measurement_notes: MDA-MB231 cell viability, sulforhodamine B assay
# Assay type: cell-based, human
# condition_details: Homo sapiens, MDA-MB-231; 72 h treatment
reported_endpoint: pIC50
# pIC50 = -log10(concentration in molar units)

Prompt line: What value of measured pIC50 is listed for O=C(NCCN1CCN(c2cccc(C(F)(F)F)c2)CC1)c1ccccn1 ?
Response line: 3.65

Prompt line: Another compound to check: O=C(NCCCN1CCN(C(=O)c2ccco2)CC1)c1ccccn1
Response line: 3.51

Prompt line: Another compound to check: O=C(NCCN1CCN(C(c2ccc(F)cc2)c2ccc(F)cc2)CC1)c1ccccn1
Response line: 3.70

Prompt line: Another compound to check: O=C(NCCCN1CCN(C(c2ccc(F)cc2)c2ccc(F)cc2)CC1)c1ccccn1
Response line: 4.04

Prompt line: Another compound to check: N#CN=C(NCCCN1CCN(C(c2ccc(F)cc2)c2ccc(F)cc2)CC1)c1ccccn1
Response line: 3.93

Prompt line: Another compound to check: O=C(NCCCN1CCN(Cc2ccc3c(c2)OCO3)CC1)c1ccccn1
Response line: 3.49

Prompt line: Another compound to check: O=C1C2C3C=CC(C3)C2C(=O)N1OCCN1CCN(c2ccc(Cl)c(Cl)c2)CC1 (centres unmarked)
Response line: 3.77

Prompt line: Another compound to check: O=C(c1ccco1)N1CCN(CC(O)CON2C(=O)C3C4C=CC(C4)C3C2=O)CC1 (centres unmarked)
Response line: 3.87

* * *

# system_name: serotonin 5-HT1A receptor (Rattus norvegicus)
# Construct: serotonin 5-HT1A receptor, [^3H]-8-OH-DPAT, rat brain cortex; from tissue; host or cells: rat brain cortex
# Sequence (P19327 1-422): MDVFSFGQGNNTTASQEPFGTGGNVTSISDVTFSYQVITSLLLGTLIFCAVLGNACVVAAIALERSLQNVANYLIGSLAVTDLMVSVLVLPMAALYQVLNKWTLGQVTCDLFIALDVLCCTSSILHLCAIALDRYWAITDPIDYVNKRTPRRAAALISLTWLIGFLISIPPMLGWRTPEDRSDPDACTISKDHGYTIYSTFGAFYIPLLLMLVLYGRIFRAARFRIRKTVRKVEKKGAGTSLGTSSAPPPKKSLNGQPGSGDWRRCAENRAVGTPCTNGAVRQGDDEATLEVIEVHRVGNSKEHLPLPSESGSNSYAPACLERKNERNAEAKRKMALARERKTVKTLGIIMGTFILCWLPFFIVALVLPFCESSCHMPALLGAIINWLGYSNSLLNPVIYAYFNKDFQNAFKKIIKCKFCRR
# measurement_notes: radioligand binding assay, 5-HT1A, [3H]-8-OH-DPAT
# condition_details: rat brain cortex; read-out: Ki ± SD, 5-HT1A [3H]8OH-DPAT
reported_endpoint: Ki (nM)
API: value field is a number in nM; no unit string.

Prompt line: What value of measured Ki is listed for O=C(NCCCN1CCN(C(c2ccc(F)cc2)c2ccc(F)cc2)CC1)c1ccccn1 ?
Response line: 52.7

Prompt line: Another compound to check: O=C(NCCN1CCN(c2cccc(C(F)(F)F)c2)CC1)c1ccccn1
Response line: 1320

Prompt line: Another compound to check: O=C(c1ccco1)N1CCN(CC(O)CON2C(=O)C3C4C=CC(C4)C3C2=O)CC1 (stereo not shown)
Response line: 1050
